method_notes: in vivo
run_parameters: rat, serum, po, 25 mg/kg

molecule	readout_unit	AUC
O=c1oc2ccccc2c(O)c1Cc1c(O)c2ccccc2oc1=O [SPRAY DICUMAROL CONTROL, dicumarol]	µg·h/mL	232

* * *

method_notes: in vivo
run_parameters: rat, serum, po, 25 mg/kg
quantity_kind: Cmax (ng/mL)

molecule	reported_measurement
O=c1oc2ccccc2c(O)c1Cc1c(O)c2ccccc2oc1=O [SPRAY DICUMAROL CONTROL, dicumarol]	17900
